Could you please report measured GI50 for the items listed next?
Tested on: K562
protocol.notes: NCI tumour cell line growth inhibition, 48 h
Calls of active or inactive are those of the source. Rule as the data show it: active = GI50 up to about 1.1 µM and inactive = higher. Non-standard residues stand in square brackets, D forms with d. Residues, ends and D or L forms follow the SMILES beside them. *: point of attachment. Ac5c = NC1(C(=O)O)CCCC1; Cbz = O=C(OCc1ccccc1)*; Boc = CC(C)(C)OC(=O)*; tBu = CC(C)(C)*

Prompt: Need GI50, item O=C1OC[C@@H]2Cc3c([nH]c4ccccc34)[C@@H](c3cc(O)c(O)c(O)c3)N12
Response: 3.91 µM (inactive)

Prompt: Data request, read-out GI50, for O=C1c2ccccc2C2CNC1(O)c1ccccc12 (stereo not given)
Response: > 100 µM (inactive)

Prompt: Which GI50 value belongs to CCC1=C(CC)C1(C#N)[N+](=O)[O-] ?
Response: > 100 µM (inactive)

Prompt: Report GI50 for N#Cc1c(-c2ccc(Cl)cc2)cc(-c2nc3ccccc3[nH]2)nc1N please.
Response: 6.71 µM (inactive)

Prompt: // GI50 lookup, key: O=c1[nH]nc(Cc2ccccc2)n1O
Response: > 100 µM (inactive)

Prompt: // returns reported GI50 for input CC1=NC(=N)N=C(C)C1/N=N/c1ccc2[nH]c(C)nc2c1 (stereo not given)
Response: > 100 µM (inactive)

Prompt: # GI50 lookup, item OC12c3ccccc3C1CCCCCCCCCC21OCCO1 (stereo not given)
Response: > 100 µM (inactive)

Prompt: Requested field: GI50. Item: C=C[C@]1(C)CC(O)C2C(=C)C(=O)OC2[C@H]1C(=C)C=O (stereo not given in full)
Response: 2.52 µM (inactive)

Prompt: Given the molecule Cc1c(-c2ccccc2)[nH]c2cc(Cl)ccc2c1=O , what is its reported GI50?
Response: 16.4 µM (inactive)

Prompt: Value lookup for GI50; key = COC(=O)C1(NC(=O)C(Cc2ccccc2)NC(=O)C(NC(=O)C(CCCCNC(=O)OC(C)(C)C)NC(=O)C(Cc2c[nH]c3ccccc23)NC(=O)C(Cc2ccccc2)NC(=O)OCc2ccccc2)C(C)OC(C)(C)C)CCCC1 (stereo not given) (Cbz-FWK(Boc)T(tBu)F[Ac5c]-OMe; configuration not given here)
Response: > 100 µM (inactive)
